- assayedSystem: γ-secretase (Cricetulus griseus)
- assayText: Cell-Based γ-Secretase Assay with ELISA Readout (production of amyloid beta protein Aβ(1-42))
- particulars: human WT-APP overexpressing CHO cells; Aβ(1-42) ELISA; geometric mean of 2-4 determinations (b: single determination; c: geometric mean of ≧5 determinations)
endpointLabel: pIC50
Keep it numeric: pIC50 is minus log10 of the concentration in mol/L.

Per the record, Cc1cn(-c2ccc3n(c2=O)CCN(CC2CC(c4ccc(Cl)c(C(F)(F)F)c4)=NO2)C3=O)cn1 (stereo not shown) has pIC50 of 6.37
